Consider the following HepSE_liver function tests abnormal values measured on Hepatotoxicity.
Where a SMILES comes first, the peptide text is derived from it. Bridges are numbered along the chain shown (N, C = ends). [ ]: non-standard residue; d: D form. The star is where a group is joined. Threoninol(2S,3R) = C[C@@H](O)[C@H](CO)N*

[
  {
    "compound": "CC(C(=O)O)c1cccc(Oc2ccccc2)c1 (stereo not given) [FENOPROFEN]",
    "targetOrSystem": "Hepatotoxicity",
    "HepSE_liver function tests abnormal": 0
  },
  {
    "compound": "Cc1cn([C@H]2C[C@H](O)[C@@H](CO)O2)c(=O)[nH]c1=O [DOXRIBTIMINE]",
    "targetOrSystem": "Hepatotoxicity",
    "HepSE_liver function tests abnormal": 0
  },
  {
    "compound": "CCN(CC)CCNC(=O)c1cc(Cl)c(N)cc1OC [METOCLOPRAMIDE]",
    "targetOrSystem": "Hepatotoxicity",
    "HepSE_liver function tests abnormal": 0
  },
  {
    "compound": "O=C1NC(c2ccccc2)(c2ccccc2)C(=O)N1COP(=O)(O)O [FOSPHENYTOIN]",
    "targetOrSystem": "Hepatotoxicity",
    "HepSE_liver function tests abnormal": 1
  },
  {
    "compound": "CNC(=O)c1c(I)c(NC(C)=O)c(I)c(C(=O)[O-])c1I.[Na+] [IOTHALAMATE SODIUM]",
    "targetOrSystem": "Hepatotoxicity",
    "HepSE_liver function tests abnormal": 0
  },
  {
    "compound": "C[C@H](O)C(=O)Nc1c(I)c(C(=O)NC(CO)CO)c(I)c(C(=O)NC(CO)CO)c1I [IOPAMIDOL]",
    "targetOrSystem": "Hepatotoxicity",
    "HepSE_liver function tests abnormal": 0
  },
  {
    "compound": "CN1CCC[C@@H]1Cc1c[nH]c2ccc(CCS(=O)(=O)c3ccccc3)cc12",
    "targetOrSystem": "Hepatotoxicity",
    "HepSE_liver function tests abnormal": 1
  },
  {
    "compound": "Nc1nc(Cl)nc2c1ncn2[C@@H]1O[C@H](CO)[C@@H](O)[C@@H]1F [CLOFARABINE]",
    "targetOrSystem": "Hepatotoxicity",
    "HepSE_liver function tests abnormal": 0
  },
  {
    "compound": "CCC1=C[C@@H]2CN(C1)Cc1c([nH]c3ccccc13)[C@@](C(=O)OC)(c1cc3c(cc1OC)N(C)[C@H]1[C@@](O)(C(=O)OC)[C@H](OC(C)=O)[C@]4(CC)C=CCN5CC[C@]31[C@@H]54)C2 [VINORELBINE]",
    "targetOrSystem": "Hepatotoxicity",
    "HepSE_liver function tests abnormal": 0
  },
  {
    "compound": "C[C@@H](O)[C@H](CO)NC(=O)[C@@H]1CSSC[C@H](NC(=O)[C@H](N)Cc2ccccc2)C(=O)N[C@@H](Cc2ccccc2)C(=O)N[C@H](Cc2c[nH]c3ccccc23)C(=O)N[C@@H](CCCCN)C(=O)N[C@@H]([C@@H](C)O)C(=O)N1 (H-[dF]CF[dW]KTC-{Threoninol(2S,3R)}; disulfide 2-7)",
    "targetOrSystem": "Hepatotoxicity",
    "HepSE_liver function tests abnormal": 0
  },
  {
    "compound": "N[C@@H](Cc1ccc(N(CCCl)CCCl)cc1)C(=O)O",
    "targetOrSystem": "Hepatotoxicity",
    "HepSE_liver function tests abnormal": 1
  },
  {
    "compound": "Cc1nc2ccc(CN(C)c3ccc(C(=O)N[C@@H](CCC(=O)O)C(=O)O)s3)cc2c(=O)[nH]1 [RALTITREXED]",
    "targetOrSystem": "Hepatotoxicity",
    "HepSE_liver function tests abnormal": 0
  },
  {
    "compound": "O=C(O[C@@H]1C[C@@H]2C[C@H]3C[C@H](C1)N2CC3=O)c1c[nH]c2ccccc12 [DOLASETRON]",
    "targetOrSystem": "Hepatotoxicity",
    "HepSE_liver function tests abnormal": 0
  },
  {
    "compound": "CCC(=O)O[C@@H](O[P@](=O)(CCCCc1ccccc1)CC(=O)N1C[C@H](C2CCCCC2)C[C@H]1C(=O)O)C(C)C [FOSINOPRIL]",
    "targetOrSystem": "Hepatotoxicity",
    "HepSE_liver function tests abnormal": 0
  },
  {
    "compound": "CC(N)Cc1c[nH]c2ccccc12 (stereo not given)",
    "targetOrSystem": "Hepatotoxicity",
    "HepSE_liver function tests abnormal": 0
  }
]
